The origin of these recorded values is ChEMBL document CHEMBL5149982.

Target: NEDD8 activating enzyme (Homo sapiens)
Sequence (Q8TBC4 whole entry): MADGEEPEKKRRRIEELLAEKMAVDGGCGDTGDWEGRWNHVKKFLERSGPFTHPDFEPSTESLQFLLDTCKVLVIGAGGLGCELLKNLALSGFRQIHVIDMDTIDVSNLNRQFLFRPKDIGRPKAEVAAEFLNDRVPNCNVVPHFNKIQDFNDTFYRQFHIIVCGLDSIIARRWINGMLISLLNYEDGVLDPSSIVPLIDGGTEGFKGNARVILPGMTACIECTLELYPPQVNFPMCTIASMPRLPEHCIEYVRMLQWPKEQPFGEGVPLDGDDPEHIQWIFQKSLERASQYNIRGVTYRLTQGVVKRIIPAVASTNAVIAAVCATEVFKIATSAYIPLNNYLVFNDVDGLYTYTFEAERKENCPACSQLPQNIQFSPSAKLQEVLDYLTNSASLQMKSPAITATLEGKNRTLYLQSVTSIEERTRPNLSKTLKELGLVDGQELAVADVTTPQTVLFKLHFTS
Sequence (Q13564 whole entry): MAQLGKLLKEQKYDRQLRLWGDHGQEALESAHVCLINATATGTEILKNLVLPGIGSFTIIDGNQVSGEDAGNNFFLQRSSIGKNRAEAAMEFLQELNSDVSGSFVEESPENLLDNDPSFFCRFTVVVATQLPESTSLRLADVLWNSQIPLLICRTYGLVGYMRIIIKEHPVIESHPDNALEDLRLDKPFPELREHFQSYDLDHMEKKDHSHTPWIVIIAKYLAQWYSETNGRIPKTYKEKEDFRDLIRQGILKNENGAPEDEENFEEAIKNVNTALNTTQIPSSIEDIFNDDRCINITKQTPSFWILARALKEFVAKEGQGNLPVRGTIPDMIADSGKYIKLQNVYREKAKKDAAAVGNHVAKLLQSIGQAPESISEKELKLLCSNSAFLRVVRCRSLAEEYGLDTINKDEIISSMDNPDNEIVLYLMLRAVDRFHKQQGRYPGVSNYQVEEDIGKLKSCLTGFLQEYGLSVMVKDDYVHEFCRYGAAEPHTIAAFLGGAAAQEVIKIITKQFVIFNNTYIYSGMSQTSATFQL
Assay: Inhibition of NAE (unknown origin) mediated neddylation assessed as decrease in NEDD8-Ubcl2 adduct formation incubated for 2 hrs in presence of L-glutathione and ATP by HTRF assay
Assay type: protein-complex assay
Readout Name: IC50 (nM)

CCOC(=O)N1CCC2(CC1)C[C@H](Nc1ncnc3c1nnn3[C@@H]1C[C@@H](COS(N)(=O)=O)[C@@H](O)C1)c1ccccc12    2.23

I = COC(=O)N1CCC2(CC1)C[C@H](Nc1ncnc3c1nnn3[C@@H]1C[C@@H](COS(N)(=O)=O)[C@@H](O)C1)c1ccccc12
II = NS(=O)(=O)OC[C@@H]1C[C@@H](n2nnc3c(N[C@@H]4c5ccccc5C[C@@H]4O)ncnc32)C[C@@H]1O
query: Please indicate which item has the smaller measured IC50: I versus II Indicate your choice by writing its label.
result: I
(I: 0.55 nM, II: 2.28 nM)

----------
Experiment: Observed MRTinfinity in Sprague-Dawley rat at 1 mg/kg, iv
Format: ADME, organism-based
Conditions: in vivo
Readout Name: MRT inf (h)

P = COC(=O)N1CCC2(CC1)C[C@H](Nc1ncnc3c1nnn3[C@@H]1C[C@@H](COS(N)(=O)=O)[C@@H](O)C1)c1ccccc12
Q = NS(=O)(=O)OC[C@@H]1C[C@@H](n2ccc3c(N[C@H]4CCc5ccccc54)ncnc32)C[C@@H]1O
query: Higher MRT inf between P and Q ? Give the chosen item's label as your response.
result: Q
(Q: 1.9 h, P: 1 h)

----------
In this section, each of the compounds is paired with its reported IC50.
Tested on: CAPAN-1
Experiment: Antiproliferative activity against human CAPAN-1 cells assessed as cell growth inhibition measured after 72 hrs by SRB assay
Format: functional, cell-based
Conditions: CAPAN-1, 72 h
All answers are understood in nM, so give the number only.

NS(=O)(=O)OC[C@@H]1C[C@@H](n2ccc3c(N[C@H]4CCc5ccccc54)ncnc32)C[C@@H]1O [PEVONEDISTAT]    101

Here is another compound to look at.
query: Record COC(=O)N1CCC2(CC1)C[C@H](Nc1ncnc3c1nnn3[C@@H]1C[C@@H](COS(N)(=O)=O)[C@@H](O)C1)c1ccccc12 : what is its IC50 with CAPAN-1?
result: 101

----------
Assay: Clearance in Sprague-Dawley rat at 1 mg/kg, iv
Assay type: ADME, organism-based
Details: in vivo
Readout Name: clearance (mL/min/kg)

I = NS(=O)(=O)OC[C@@H]1C[C@@H](n2ccc3c(N[C@H]4CCc5ccccc54)ncnc32)C[C@@H]1O [PEVONEDISTAT]
II = COC(=O)N1CCC2(CC1)C[C@H](Nc1ncnc3c1nnn3[C@@H]1C[C@@H](COS(N)(=O)=O)[C@@H](O)C1)c1ccccc12
query: Lower value of clearance belongs to which: I or II ? Returns: label corresponding to the selected item.
result: I

----------
Target: NEDD8 activating enzyme (Homo sapiens, UniProt Q8TBC4)
Assay: Inhibition of NAE (unknown origin)
Format: protein-complex assay
pIC50: −log10 of the molar value.
Readout Name: pIC50

a = CCOc1cccc(F)c1C#Cc1cn([C@@H]2O[C@H](COS(N)(=O)=O)[C@@H](O)[C@H]2O)c2ncnc(N)c12
b = NS(=O)(=O)OC[C@H]1O[C@@H](n2cnc3c(N[C@H]4CCc5ccccc54)ncnc32)[C@H](O)[C@@H]1O
query: For the pair a and b , which member has the lower pIC50 number? Indicate your choice by writing its label.
result: b

----------
Biological target: NEDD8 activating enzyme (Homo sapiens, UniProt Q8TBC4)
Sequence (Q8TBC4 whole entry): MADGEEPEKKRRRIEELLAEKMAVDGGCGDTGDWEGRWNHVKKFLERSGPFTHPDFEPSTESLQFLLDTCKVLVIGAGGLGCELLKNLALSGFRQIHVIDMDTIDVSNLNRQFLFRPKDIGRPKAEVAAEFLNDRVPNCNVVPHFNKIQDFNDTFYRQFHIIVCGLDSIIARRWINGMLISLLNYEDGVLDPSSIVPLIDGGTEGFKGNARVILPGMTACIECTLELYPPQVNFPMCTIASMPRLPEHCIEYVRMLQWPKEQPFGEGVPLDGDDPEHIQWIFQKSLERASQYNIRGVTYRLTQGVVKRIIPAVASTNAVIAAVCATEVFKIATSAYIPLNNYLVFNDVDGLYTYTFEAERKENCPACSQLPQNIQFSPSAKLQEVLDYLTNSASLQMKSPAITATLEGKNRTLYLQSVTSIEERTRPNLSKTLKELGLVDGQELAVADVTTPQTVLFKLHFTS
Sequence (Q13564 whole entry): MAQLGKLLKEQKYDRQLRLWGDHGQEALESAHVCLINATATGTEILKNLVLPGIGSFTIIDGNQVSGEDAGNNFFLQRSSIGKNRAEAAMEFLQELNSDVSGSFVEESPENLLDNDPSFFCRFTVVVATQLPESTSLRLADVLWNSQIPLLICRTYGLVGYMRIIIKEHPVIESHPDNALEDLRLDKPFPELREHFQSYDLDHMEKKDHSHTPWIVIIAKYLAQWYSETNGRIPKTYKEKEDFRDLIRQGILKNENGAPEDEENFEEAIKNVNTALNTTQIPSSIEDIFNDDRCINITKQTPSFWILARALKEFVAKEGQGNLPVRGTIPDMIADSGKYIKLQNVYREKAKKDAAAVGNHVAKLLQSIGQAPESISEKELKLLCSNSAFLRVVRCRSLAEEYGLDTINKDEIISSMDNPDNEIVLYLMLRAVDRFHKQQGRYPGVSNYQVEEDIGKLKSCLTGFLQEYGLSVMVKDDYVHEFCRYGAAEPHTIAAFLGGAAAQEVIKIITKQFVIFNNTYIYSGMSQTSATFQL
Test: Inhibition of NAE (unknown origin) mediated neddylation assessed as decrease in NEDD8-Ubcl2 adduct formation incubated for 2 hrs in presence of L-glutathione and ATP by HTRF assay
Format: protein-complex assay
Readout Name: IC50 (nM)

P = NS(=O)(=O)OC[C@@H]1C[C@@H](n2nnc3c(N[C@H]4CC5(CCNCC5)c5ccccc54)ncnc32)C[C@@H]1O
Q = CCCCCCNc1ncnc2c1nnn2[C@@H]1C[C@@H](COS(N)(=O)=O)[C@@H](O)C1
R = NS(=O)(=O)OC[C@@H]1C[C@@H](n2nnc3c(NCCc4cccs4)ncnc32)C[C@@H]1O
query: Give the order of the entries above, sorted from least to greatest IC50. Output spec: a listing of the labels in the requested order.
result: Q, P, R

----------
Molecular target: NEDD8 activating enzyme (Homo sapiens)
Experiment: Inhibition of NAE (unknown origin) mediated neddylation assessed as decrease in NEDD8-Ubcl2 adduct formation incubated for 2 hrs in presence of L-glutathione and ATP by HTRF assay
Type: protein-complex assay
pIC50: −log10 of the molar value.
Readout Name: pIC50

Some compounds with known pIC50 results, for comparison:
CN(C)[C@H]1Cc2ccccc2[C@H]1Nc1ncnc2c1nnn2[C@@H]1C[C@@H](COS(N)(=O)=O)[C@@H](O)C1    6.68
CN1CCC2(CC1)C[C@H](Nc1ncnc3c1nnn3[C@@H]1C[C@@H](COS(N)(=O)=O)[C@@H](O)C1)c1ccccc12    6.73
NS(=O)(=O)OC[C@@H]1C[C@@H](n2nnc3c(N[C@H]4CC5(CCN(C(=O)OC(CO)CO)CC5)c5ccccc54)ncnc32)C[C@@H]1O    6.92
NS(=O)(=O)OC[C@@H]1C[C@@H](Nc2ncnc(N[C@H]3CCc4ccccc43)c2F)C[C@@H]1O    6.66

A = NS(=O)(=O)OC[C@@H]1C[C@@H](n2nnc3c(NCc4ccccc4F)ncnc32)C[C@@H]1O
B = NS(=O)(=O)OC[C@@H]1C[C@@H](n2nnc3c(NCCCc4ccccc4)ncnc32)C[C@@H]1O
C = COC(=O)[C@H]1C=C[C@@H](Nc2ncnc3c2nnn3[C@@H]2C[C@@H](COS(N)(=O)=O)[C@@H](O)C2)C1
D = NS(=O)(=O)OC[C@@H]1C[C@@H](n2nnc3c(NCc4ccco4)ncnc32)C[C@@H]1O
query: Rank ascending by pIC50. API: response body holds the labels in the requested order.
result: B, C, D, A
(B: 6.83, C: 7.09, D: 7.51, A: 8.21)
